- Test system: C33A
- experiment summary: Primary qHTS to identify gynecologic anti-cancer compounds using libraries of approved drugs and bioactive compounds (AID 1345084); also: % is scaled to controls: 0 for no effect and ±100 for the full control effect; nearly all actives have a fitted effect of over 55% in size
- assay conditions: Gynecologic cancer cell panel viability, ATPlite luminescence, 48 h; series mostly up to 57.5 µM
Inconclusive results are not listed. Calls of active or inactive are those of the source. Calls follow the shape of the dose curve; as a rule, active = well fitted cell-killing curve with a large enough effect; inconclusive = small, poorly fitted or top-dose-only effect, or effect the other way; inactive = flat fitted curve, though single readings scatter.
measured parameter: activity change, negative = cytotoxicity

See these solved cases before continuing.
{"columns": ["compound", "activity change, negative = cytotoxicity"],
 "data": [
  ["CC1OC(OC2C(C)OC(OC3C(OC(=O)C45CCC(C)(C)CC4C4=CCC6C7(C)CCC(OC8OC(C(=O)O)C(O)C(O)C8OC8OC(CO)C(O)C(OC9OC(C)C(O)C(O)C9O)C8O)C(C)(CO)C7CCC6(C)C4(C)CC5)OC(CO)C(O)C3O)C(O)C2O)C(O)C(O)C1O (stereo not given)", "1.01% [at 6.55 µM] (inactive)"],
  ["CCCC(=O)O[C@@H]1[C@@H]2[C@@H](OC(C)=O)[C@]3(C)C(=O)[C@H]4[C@@H](OC(C)=O)C(C)(C)C[C@H]4[C@]3(C)C(=O)[C@@]2(OC(C)=O)C[C@@H]1C", "inactive"],
  ["C/C=C(\\C)C(=O)O[C@@H]1CC2[C@@H](CC=C3C[C@@H](O[C@H]4C[C@H](OC)[C@H](O[C@H]5C[C@H](OC)[C@H](O[C@@H]6O[C@H](C)[C@@H](O[C@H]7C[C@H](OC)[C@H](O[C@@H]8O[C@H](CO)[C@@H](O)[C@H](O)[C@H]8O)[C@@H](C)O7)[C@H](OC)[C@H]6O)[C@@H](C)O5)[C@@H](C)O4)CC[C@@]32C)[C@@]2(O)CC[C@H](C(C)=O)[C@@]12C (stereo not given in full)", "1.36% [at 6.55 µM] (inactive)"],
  ["CC(=O)N[C@@H](CCCCN)C(=O)N(C)[C@@H](CC(C)C)C(=O)N[C@H](C(=O)N(C)[C@@H](Cc1ccccc1)C(=O)N[C@H](Cc1ccccc1)C(N)=O)C(C)C", "18.7% [at 6.55 µM] (inactive)"]
]}

IN: If you can, please state the reported activity change, negative = cytotoxicity value of C=C[C@]1(C)C[C@H](O)[C@@H]2[C@H](OC(=O)[C@@H]2C)C1/C(C)=C/O[C@@H]1O[C@H](CO)[C@@H](O)[C@H](O)[C@H]1O (stereo not given in full) .
OUT: inactive

Hey, just so you know, these numbers are from PubChem BioAssay (NCATS).
